// Kp at 2 h lookup, one value per entry
Experiment: Brain pharmacokinetic (PK) study in mice
Assay type: in vivo
Conditions: female, nude BALB/c, mouse, brain / plasma; 2 hour; single PO dose, lapatanib 50 mg/kg, ARRY-380 75 mg/kg; read-out: brain:plasma ratio
Quick one: just the number, no unit, thanks!

Cc1cc(Nc2ncnc3ccc(NC4=NC(C)(C)CO4)cc23)ccc1Oc1ccn2ncnc2c1 : 0.021
CS(=O)(=O)CCNCc1ccc(-c2ccc3ncnc(Nc4ccc(OCc5cccc(F)c5)c(Cl)c4)c3c2)o1 [Lapatanib, lapatinib, reference compound] : 0.039

Attention now shifts to the item below.
Entry under test: Cc1cc(Nc2ncnc3ccc(NC4=NC(C)(CO)CO4)cc23)ccc1Oc1ccn2ncnc2c1 (stereo not drawn) . Its Kp at 2 h was 0.48

====

Experiment: Brain pharmacokinetic (PK) study in mice
Type: in vivo
Conditions: 2 hour; single PO dose, lapatanib 50 mg/kg, ARRY-380 75 mg/kg (AR00440993 = metabolite of ARRY-380); nude female BALB/c mice
Average Plasma Concentration values by entry
Provide the reading as a plain figure in ng/mL.

For record Cc1cc(Nc2ncnc3ccc(NC4=NC(C)(C)CO4)cc23)ccc1Oc1ccn2ncnc2c1 [ARRY-380] the listed Average Plasma Concentration is 6010

// Average Plasma Concentration value for CS(=O)(=O)CCNCc1ccc(-c2ccc3ncnc(Nc4ccc(OCc5cccc(F)c5)c(Cl)c4)c3c2)o1 [Lapatanib, lapatinib, reference compound] : 1740
